Target: T1, M12
T1 construct: also called PD1 mutant M12
Assay: ELISA, 1 ug/ml
// OD490 lookup, one value per entry
// no unit string in output, number only

Here's what some known entries look like.
binder="PD1-45D6 (antibody, V domains shown, scFv-phage in the screening ELISA; whole IgG in the other assays) VH: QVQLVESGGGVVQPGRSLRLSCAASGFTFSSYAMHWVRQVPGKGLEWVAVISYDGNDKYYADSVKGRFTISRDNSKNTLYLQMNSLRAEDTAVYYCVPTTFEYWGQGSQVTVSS VL: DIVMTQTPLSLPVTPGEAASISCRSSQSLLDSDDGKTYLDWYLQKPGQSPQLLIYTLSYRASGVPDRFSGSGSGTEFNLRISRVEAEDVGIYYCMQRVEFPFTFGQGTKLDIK" value_observed=3.9
binder="PD1-49A2 (antibody, V domains shown, scFv-phage in the screening ELISA; whole IgG in the other assays; also called Parent 49A2) VH: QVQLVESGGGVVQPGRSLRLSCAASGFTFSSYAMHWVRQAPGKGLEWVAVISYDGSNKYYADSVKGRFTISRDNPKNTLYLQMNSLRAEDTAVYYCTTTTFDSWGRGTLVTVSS VL: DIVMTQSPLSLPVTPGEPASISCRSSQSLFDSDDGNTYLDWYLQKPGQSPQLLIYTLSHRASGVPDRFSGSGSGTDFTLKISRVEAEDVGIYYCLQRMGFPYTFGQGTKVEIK" value_observed=3.9
binder="PD1-41C9 (antibody, V domains shown, scFv-phage in the screening ELISA; whole IgG in the other assays) VH: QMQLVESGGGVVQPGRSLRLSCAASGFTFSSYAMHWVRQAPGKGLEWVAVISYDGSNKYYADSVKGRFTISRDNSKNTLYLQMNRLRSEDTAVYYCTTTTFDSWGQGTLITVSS VL: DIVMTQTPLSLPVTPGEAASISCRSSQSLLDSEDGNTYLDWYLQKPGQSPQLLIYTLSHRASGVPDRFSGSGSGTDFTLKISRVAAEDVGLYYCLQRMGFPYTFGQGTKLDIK" value_observed=3.1

Kindly consider the entry below.
Enquiry: Quick check: OD490 of PD1-52E8 (antibody, V domains shown, scFv-phage in the screening ELISA; whole IgG in the other assays) VH: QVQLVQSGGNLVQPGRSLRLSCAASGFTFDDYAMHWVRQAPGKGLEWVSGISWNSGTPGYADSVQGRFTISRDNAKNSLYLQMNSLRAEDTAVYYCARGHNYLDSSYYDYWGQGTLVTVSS VL: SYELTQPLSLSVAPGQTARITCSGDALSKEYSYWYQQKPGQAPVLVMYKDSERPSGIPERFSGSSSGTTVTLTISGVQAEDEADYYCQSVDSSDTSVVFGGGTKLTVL ?
Return: 3.2

Data provenance is patent US20190248900A1.
